Data origin, for the record: PubChem BioAssay (NCI)

system: UACC-62 melanoma; assay: NCI-60 one-dose screen, 48 h; details: 10 µM unless noted
The panel holds about 83,000 compounds, 20% with a hit somewhere; the sample as a whole holds those more often. Calls of active or inactive are those of the source. How the source made its calls: active means growth percent below 10; inactive means the rest.
Write down the outcome that applies. Available outcomes: active, inactive

O=C(NC(=S)NNC(=S)NNc1ccccc1)c1ccccc1: inactive
CCn1cnc(C[C@H](NC(=O)[C@@H](NC(=O)Nc2cc(C(F)(F)F)cc(C(F)(F)F)c2)C(C)C)C(=O)OC)c1: active
CC[C@H](Nc1ncnc2nc[nH]c12)c1nc2cccc(NCc3ccc(C(=O)NO)o3)c2c(=O)n1-c1ccccc1: inactive
COC(=O)c1ccc2[nH]c(O)c(C(=Nc3ccc(N(C)C(=O)CN4CCN(C)CC4)cc3)c3ccc(OC)cc3)c2c1: inactive
CCCCCCNC(=O)Oc1ccc(/C(=C(/C)Cc2ccc(OC)cc2)c2ccc(OCCN3CCCCC3)cc2)cc1: inactive

### Prompt What classification did "Cc1ccc(C(=O)Nc2ccc(CN3CCN(C)CC3)c(C(F)(F)F)c2)cc1C#Cc1cnc(N)c2ccc(F)cc12" end up with in this test?
### Response active

### Prompt What classification did "COc1ccc(NC(=O)/C=C(C)/C=C/C=C(C)/C=C/C2=C(C)CCCC2(C)C)cc1" end up with in this test?
### Response inactive

### Prompt What classification did "CC(C)(CNC1CCCCC1)OC(=O)c1ccccc1" end up with in this test?
### Response inactive

### Prompt What classification did "CCC(C)(C)c1ccc(OCCCCCCN2CCNCC2)cc1" end up with in this test?
### Response inactive

###

system: SF-539 CNS; assay: NCI-60 one-dose screen, 48 h (100 = growth as untreated, 0 = no growth, -100 = all killed); conditions: 10 µM unless noted
The panel holds about 83,000 compounds, 20% with a hit somewhere; the sample as a whole holds those more often.
growth values for the compounds below.
Response body: numeric value in %, unit text excluded.

O=C(O)c1occ(Cl)c1Cl: 111
CC(=O)CCS(=O)c1ccccc1 (configuration not stated): 113
Oc1ccc(CN(Cc2ccc(C(F)(F)F)cc2)Cc2ccc(O)c3ncccc23)c2cccnc12: 15.2

### Prompt Read off the recorded growth for "COc1cc2c(/C=C3\C(=O)Nc4ccc(Br)cc43)c(Cl)n(C)c2cc1C"
### Response 7.51

### Prompt Read off the recorded growth for CCCCCCCCC1OC1CCCCCCCC(=O)O (configuration not stated)
### Response 93.5

### Prompt Read off the recorded growth for "CCCCCCCCCCCCCCCCCC(=O)Nc1ccc(O)cc1"
### Response -16

### Prompt Read off the recorded growth for "CC(=O)O.[In]"
### Response 110

###

tested on: PC-3 prostate; assay: NCI-60 one-dose screen, 48 h; details: 10 µM unless noted
Compounds without any hit were thinned out: in the full panel of roughly 83,000, 20% have a hit. The source made the active and inactive calls. The calls were made as follows: active = growth percent below 10; inactive = the rest.
Write down the outcome that applies. Available outcomes: active, inactive

CCOC(=O)C1CCCN1C(=O)C1(NC(C)=O)CCCC1 (stereo not drawn): inactive
CCCCCCCCCCN1CC2CCCCC2C1 (stereo not drawn): inactive
C[C@@H](c1ccc2c(c1)[nH]c1ccc(Cl)cc12)c1nc2ccc(Cl)cc2[nH]1: inactive
CCC(C)[C@H](NC(=O)Nc1cc(C(F)(F)F)cc(C(F)(F)F)c1)C(=O)N[C@@H](Cc1cn(C)cn1)C(=O)OC (stereo partly drawn): active
Cc1ccc(NCc2cn(-c3ccc(C(=O)O)cc3)nc2-c2ccc(C(=O)O)cc2)cc1: inactive
CC(C)(C)c1ccc([I+]c2ccc(C(C)(C)C)cc2)cc1: active
N=C(c1ccccc1)N(Cc1ccccc1)Cc1ccccc1: inactive
CCCCN(CCCC)CC(O)CN(CC)CC (stereo not drawn): inactive
C#CCCCCCCC[C@@H]1OC(=O)[C@H]([C@@H](C)CC)NC(=O)[C@H]([C@@H](C)CC)NC(=O)CC(=O)[C@@H]1C: inactive
N#Cc1ccc(OCc2nc(N)nc(N)c2-c2ccc(Cl)c(Cl)c2)cc1: inactive

### Prompt What classification did "COc1ccc(Nc2c3ccccc3nc3ccccc23)cc1" end up with in this test?
### Response inactive

### Prompt What classification did "Cn1cnc2nc[nH]c2c1=S" end up with in this test?
### Response inactive

### Prompt What classification did "BrCCCOc1ccc(Oc2ccc(OCCCBr)cc2)cc1" end up with in this test?
### Response inactive

### Prompt What classification did "CCC(C)(CC)c1ccc(O)c(C)c1" end up with in this test?
### Response inactive
